Test: qHTS profiling for inhibitors of Plasmodium falciparum proliferation (AID 504749);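 also: 0% = DMSO vehicle and full inhibition = artemisinin control; nearly all actives have a fitted effect of over 60% in size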
Settings: P. falciparum in erythrocytes, SYBR Green DNA, 72 h; at 28.7 µM (top of the series); parasite line B
Records with an inconclusive call do not appear.
Kind request: treat 10% as inclusive, so activity, negative = inhibition at 10% or higher is Criterion met, anything lower is Criterion not met.

CN(C)c1ccc(C(=C2C=CC(=[N+](C)C)C=C2)c2c(O)c(S(=O)(=O)[O-])cc3cc(S(=O)(=O)O)ccc23)cc1; Criterion not met
OC[C@H]1O[C@@](CO)(O[C@H]2O[C@H](CO)[C@@H](O)[C@H](O)[C@H]2O)[C@@H](O)[C@@H]1O; Criterion not met
CC(C)c1ncc([N+](=O)[O-])n1C; Criterion not met
Cc1ccccn1; Criterion met
CNC(=O)OCc1cccc(COC(=O)NC)n1; Criterion not met

# check: activity, negative = inhibition of CCC(C(=O)NC(N)=O)c1ccccc1 (centres undefined) is greater than or equal to 10%
Criterion met

# check: activity, negative = inhibition of O=P(O)(O)CP(=O)(O)O is greater than or equal to 10%
Criterion met

# check: activity, negative = inhibition of COc1ccccc1N1CCN(CCCC(=O)c2ccc(F)cc2)CC1 is greater than or equal to 10%
Criterion not met

# check: activity, negative = inhibition of CO[C@H]1C[C@@H]2CC[C@@H](C)[C@@](O)(O2)C(=O)C(=O)N2CCCC[C@H]2C(=O)O[C@H]([C@H](C)C[C@@H]2CC[C@@H](OC(=O)C(C)(CO)CO)[C@H](OC)C2)CC(=O)[C@H](C)/C=C(\C)[C@@H](O)[C@@H](OC)C(=O)[C@H](C)C[C@H](C)/C=C/C=C/C=C/1C is greater than or equal to 10%
Criterion not met

###

Test: qHTS Assay for Lipid Storage Modulators (AID 1519)
Details: Drosophila S3 cells, BODIPY lipid droplet/cell ratio, laser cytometry; measured here: lipid channel max response; cells loaded with oleic acid
Results filed as inconclusive are left out.
Parameter: max response (%)
Numbers only; they are read as %.

Worked examples follow.
Nc1ncnc2c1ncn2[C@H]1CC[C@@H](CO)O1; 6.18
O=C1NCCN1c1ncc([N+](=O)[O-])s1; -3.74
N#Cc1ccc2c(c1)N(CCCN1CCC(O)CC1)c1ccccc1S2; 8.33

Measured max response, CC(=O)Oc1cccc(C(=O)O)c1OC(C)=O : 12

Measured max response, O=C1c2ccccc2C(=O)c2c1ccc(O)c2O : 20.3

Measured max response, Cc1cccc(C)c1NC(=O)C1CCCCN1C (stereo unspecified) : 29.6

Measured max response, N[C@H](CC(=O)O)C(=O)O : -12.9

Measured max response, CN1CCc2c(c3ccccc3n2Cc2ccccc2)C1 : 1.48

Measured max response, CC(=O)Nc1ccc(OC(=O)c2ccccc2O)cc1 : 24.9

###

System: CAOV3
Assay: Primary qHTS to identify gynecologic anti-cancer compounds using libraries of approved drugs and bioactive compounds (AID 1345084); also: % is scaled to controls: 0 for no effect and ±100 for the full control effect; nearly all actives have a fitted effect of over 55% in size
Details: Gynecologic cancer cell panel viability, ATPlite luminescence, 48 h; series mostly up to 57.5 µM
Records with an inconclusive call do not appear. Active and inactive are the calls of the source. Calls follow the shape of the dose curve; as a rule, active = well fitted cell-killing curve with a large enough effect; inconclusive = small, poorly fitted or top-dose-only effect, or effect the other way; inactive = flat fitted curve, though single readings scatter.
Parameter: outcome

CC1CC(OC(=O)C(O)c2ccccc2)CC(C)(C)C1 (stereo not drawn); inactive
O=C(O)CCC(=O)c1ccc(-c2ccccc2)cc1; inactive
CC(=O)Nc1ccc(NC(=S)NC(=O)c2ccc(C(C)(C)C)cc2)cc1; inactive

###

Test: qHTS assay to identify small molecule inhibitors of chordoma cells - UCH-1 (AID 1259355); also: nearly all actives have a fitted effect of over 55% in size
Conditions: UCH-1 chordoma viability, CellTiter-Glo, 48 h, combination, with auranofin plus four topoisomerase inhibitors; series mostly up to 46.1 µM
Results filed as inconclusive are left out. Active and inactive are the calls of the source. Calls follow the shape of the dose curve; as a rule, active = well fitted cell-killing curve with a large enough effect; inconclusive = small, poorly fitted or top-dose-only effect, or effect the other way; inactive = no such curve, though single readings can be large or run the other way.
The categories you may choose from are y (active), n (inactive)

Solved entries:
CN1CCCC(CN2c3ccccc3Sc3ccccc32)C1 (configuration not stated); n
CN1C(=O)C[C@@H](C(=O)N[C@@H](Cc2cnc[nH]2)C(=O)N2CCC[C@H]2C(N)=O)NC1=O; n
CC[C@@]1([C@@H]2O[C@@H]([C@H]3O[C@@](O)(CO)[C@H](C)C[C@@H]3C)C[C@@H]2C)CC[C@H]([C@]2(C)CC[C@]3(C[C@H](O)[C@@H](C)[C@@H]([C@@H](C)[C@@H](OC)[C@H](C)C(=O)O)O3)O2)O1 (stereo in doubt); y
CN1CCN(C(c2ccccc2)c2ccc(Cl)cc2)CC1 (configuration not stated); n
Cc1cc(-c2ccc(N=Nc3ccc4c(S(=O)(=O)O)cc(S(=O)(=O)O)c(N)c4c3O)c(C)c2)ccc1N=Nc1ccc2c(S(=O)(=O)O)cc(S(=O)(=O)O)c(N)c2c1O; n

# lookup: test call for Nc1nc(NC2CC2)c2ncn([C@@H]3C=C[C@@H](CO)C3)c2n1
n

# lookup: test call for CCC[C@@H]1C[C@@H](C(=O)N[C@@H]([C@H]2O[C@H](SC)[C@H](O)[C@@H](O)[C@H]2O)[C@H](C)Cl)N(C)C1
n

###

System: astro
Assay: Drug repurposing screens with cells derived from glioblastoma tumor samples (AID 1345199); also: nearly all actives have a fitted effect of over 40% in size
Details: viability, ATP luminescence, 48 h; series mostly up to 45.9 µM
Procedure: CD133+ cells were isolated from GBM patient biopsies and cultured as neurospheres. Neurospheres from four patients were used to screen the NCATS pharmaceutical collection (NPC) library of approved drugs and bioactive compounds. […] The neurospheres were incubated with drugs for 48 hours in 1536-well format, then assayed with an ATP content cell viability assay. […]
Results filed as inconclusive are left out. The source made the active and inactive calls. Calls come from the whole dose curve; as a rule, active = well fitted inhibition curve with a large enough effect; inconclusive = small, poorly fitted or top-dose-only effect; inactive = flat fitted curve, though single readings scatter.
The categories you may choose from are active, inactive

Solved entries:
NC(=O)C1c2ccccc2CCc2ccccc21; inactive
CCN(CC)CCOc1ccccc1OC; inactive
OCc1ccccc1; inactive

# lookup: test call for CC(C)c1nc(N(C)S(C)(=O)=O)nc(-c2ccc(F)cc2)c1/C=C/C(O)CC(O)CC(=O)O (centres undefined)
active

# lookup: test call for NC[C@H]1O[C@H](O[C@H]2[C@H](O)[C@@H](O[C@H]3O[C@H](CO)[C@@H](O)[C@H](N)[C@H]3O)[C@H](N)C[C@@H]2N)[C@H](N)C[C@@H]1O
inactive

# lookup: test call for CN[C@@H]1[C@@H](O)[C@@H](O[C@@H]2[C@@H](O)[C@H](O[C@H]3O[C@H](CN)[C@@H](O)[C@H](O)[C@H]3O)[C@@H](N)C[C@H]2NC(=O)C(O)CN)OC[C@]1(C)O (some centres undefined)
inactive

# lookup: test call for NC(=O)[C@@H]1C[C@]2(NC(=O)NC2=O)c2cc(F)ccc2O1
inactive

# lookup: test call for Nc1ncnc2c1ncn2[C@H]1CC[C@@H](CO)O1
inactive

# lookup: test call for CC(C)OC(=O)Nc1ccc2nc(-c3cscn3)[nH]c2c1
active

###

Assay: qHTS Assay for Identifying Gametocytocidal Compounds (AID 743244);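 also: % is scaled to controls: 0 for no effect and ±100 for the full control effect; actives lower the fluorescent signal which means gametocytes are killed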
Settings: P. falciparum 3D7 stage III-V gametocytes, alamarBlue, 72 h; stronger effect = lower value
Inconclusive results are not listed.
Parameter: max response (%)
Numbers only; they are read as %.

Worked examples follow.
O=C(O)C1=C(CSc2nnnn2CS(=O)(=O)O)CS[C@@H]2[C@H](NC(=O)[C@H](O)c3ccccc3)C(=O)N12; -5.8
C=CCN1CCCC1CNC(=O)c1cc(S(N)(=O)=O)cc(OC)c1OC (stereo not given); -2.17
NCCN; 20.9

Measured max response, O=C1c2ccccc2CN2C(=O)c3ccccc3CN12 : 10.5

Measured max response, NC(N)=NCC1COc2ccccc2O1 (stereo not given) : -11.6

Measured max response, C[C@]12CCC(=O)C[C@@H]1CC[C@@H]1[C@@H]2CC[C@]2(C)C=CC[C@@H]12 : -3.12

Measured max response, CO/N=C(\C(=O)N[C@@H]1C(=O)N2C(C(=O)O)=CCS[C@H]12)c1csc(N)n1 : 5.71

Measured max response, NC(=O)[C@@H]1C[C@]2(NC(=O)NC2=O)c2cc(F)ccc2O1 : -13.1

Measured max response, CSc1nc2cc(Oc3cccc(Cl)c3Cl)c(Cl)cc2[nH]1 : 0.358

Measured max response, CC1=C(/C=C/C(C)=C/C=C/C(C)=C/C(=O)Oc2c(C)c(C)c3c(c2C)CC[C@@](C)(CCC[C@H](C)CCC[C@H](C)CCCC(C)C)O3)C(C)(C)CCC1 : 0.0927

###

System: astro
Assay: Drug repurposing screens with cells derived from glioblastoma tumor samples (AID 1345199); also: nearly all actives have a fitted effect of over 40% in size
Details: viability, ATP luminescence, 48 h; series mostly up to 45.9 µM
Inconclusive results are not listed. Calls of active or inactive are those of the source. The call rests on the fitted dose curve; in most records, active means well fitted inhibition curve with a large enough effect; inconclusive means small, poorly fitted or top-dose-only effect; inactive means flat fitted curve, though single readings scatter.
The categories you may choose from are true (1) = active, false (0) = inactive

# lookup: test call for C=CCCCCCCCCC(=O)OC
false (0)

# lookup: test call for CN(C)C(=O)CCSC(SCCC(=O)O)c1cccc(/C=C/c2ccc3ccc(Cl)cc3n2)c1 (stereo not given)
true (1)

# lookup: test call for CC(C)CN(C[C@@H](O)[C@H](Cc1ccccc1)NC(=O)O[C@@H]1CCOC1)S(=O)(=O)c1ccc(N)cc1
false (0)

# lookup: test call for C=C1C(CCl)(CCl)C2(Cl)C(Cl)C(Cl)C1(Cl)C2(Cl)Cl (stereo not given)
false (0)

# lookup: test call for O=C(NNCS(=O)(=O)O)c1ccncc1
false (0)

# lookup: test call for OCl
false (0)

# lookup: test call for CCN(CC)C(=O)[C@]1(c2ccccc2)C[C@@H]1CN
false (0)

# lookup: test call for CO[C@H]1O[C@@H]2O[C@@]3(C)CC[C@H]4[C@H](C)CC[C@@H]([C@H]1C)[C@@]24OO3
false (0)

# lookup: test call for CC(=O)Oc1cc(C(F)(F)F)ccc1C(=O)O
false (0)

# lookup: test call for Cc1ncc(C[n+]2csc(CCOP(=O)(O)OP(=O)(O)O)c2C)c(N)n1
false (0)

# lookup: test call for Cc1nc(NS(=O)(=O)c2ccc(N)cc2)nc(C)c1Br
false (0)

# lookup: test call for O=S(=O)(O)CC(S)CS (stereo not given)
false (0)

# lookup: test call for F[Si-2](F)(F)(F)(F)F
false (0)

# lookup: test call for C=CC(=O)O
false (0)

# lookup: test call for NC(=S)NS(=O)(=O)c1ccc(N)cc1
false (0)

# lookup: test call for C=C1CC[C@H](O)CC1=C/C=C1\CCC[C@]2(C)[C@@H]([C@H](C)CCCC(C)(C)O)CC[C@@H]12
true (1)

# lookup: test call for COc1ccccc1N1CCN(CCCC(=O)c2ccc(F)cc2)CC1
false (0)

# lookup: test call for O=C(O)CCCC/C=C(\c1ccccc1)c1cccnc1
false (0)

# lookup: test call for COc1cc2c(cc1OC)[C@@H](c1ccccc1)CN(C)CC2
false (0)

# lookup: test call for CCCC(=O)Nc1c(I)cc(I)c(CC(CC)C(=O)O)c1I (stereo not given)
false (0)

# lookup: test call for CCC(C)[C@@H](N)C(=O)O (stereo not given in full)
false (0)

# lookup: test call for C[S+](C)CCC(N)C(=O)O (stereo not given)
false (0)

# lookup: test call for CN1CCN(C(c2ccccc2)c2ccc(Cl)cc2)CC1 (stereo not given)
false (0)

# lookup: test call for OC1OC[C@@H](O)[C@H](O)[C@@H]1O (stereo not given in full)
false (0)

# lookup: test call for CCCCCCCCCCCCCCCCCC(=O)OCC(C)O (stereo not given)
false (0)
